- System: calcitonin secreted by the C1-3 cell line (TT medullary thyroid carcinoma)
- ASSAY_EXPLANATION: Calcitonin Secretion/RIA Assay
- Assay type: cell-based
- MEASUREMENT_CONDITIONS: Homo sapiens, C13, C1-3 cells, active if Secretion Ratio>2.5
OBSERVED_PROPERTY: fold induction at 30 µM

- CCCCn1c(=O)c2c(ncn2S(=O)(=O)C[C@@]23CC[C@@H](CC2=O)C3(C)C)n(CCCC)c1=O [Example 10]: 4.5
- CCCCn1c(=O)c2c(ncn2S(=O)(=O)c2cccc([N+](=O)[O-])c2)n(CCCC)c1=O [Example 3]: 1.65
- CCCCn1c(=O)c2c(ncn2S(=O)(=O)c2cc(C)c(Cl)cc2C)n(CCCC)c1=O [Example 18]: 5.32
- CCCCn1c(=O)c2c(ncn2S(=O)(=O)c2c(C)cc(C)cc2C)n(CCCC)c1=O [Example 12]: 4.04

====

- System: Phosphodiesterase IV (PDE-IV) isolated from human U937 cells
- ASSAY_EXPLANATION: Inhibition of Phosphodiesterase IV (PDE-IV) Isolated from Human U937 Cells
- Assay type: biochemical
- MEASUREMENT_CONDITIONS: normalized to rolipram; 1 μM [3H]-cAMP substrate
Collected % Inhibition of PDE IV (normalized to rolipram) values appear next to each entry.
OBSERVED_PROPERTY: % Inhibition of PDE IV (normalized to rolipram)

* CCCCn1c(=O)c2c(ncn2S(=O)(=O)c2ccc(OC)c(OC)c2)n(CCCC)c1=O [Example 4] | 41%
* CCCCn1c(=O)c2c(ncn2S(=O)(=O)C[C@@]23CC[C@@H](CC2=O)C3(C)C)n(CCCC)c1=O [Example 10] | 89%
* CCCCn1c(=O)c2c(ncn2S(=O)(=O)c2cccc3ccccc23)n(CCCC)c1=O [Example 7] | 83%
* CCCCn1c(=O)c2c(ncn2S(=O)(=O)CCCC)n(CCCC)c1=O [Example 2] | 97%
* CCCCn1c(=O)c2c(ncn2S(=O)(=O)CCCCl)n(CCCC)c1=O [Example 6] | 44%
* CCCCn1c(=O)c2c(ncn2S(C)(=O)=O)n(CCCC)c1=O [Example 1] | 16%
* CCCCn1c(=O)c2c(ncn2S(=O)(=O)c2cc(C)c(Cl)cc2C)n(CCCC)c1=O [Example 18] | 37%
* CCCCn1c(=O)c2c(ncn2S(=O)(=O)c2cccs2)n(CCCC)c1=O [Example 5] | 52%

====

- Tested on: calcitonin secreted by the C1-3 cell line (TT medullary thyroid carcinoma)
- ASSAY_EXPLANATION: Calcitonin Secretion/RIA Assay
- Type: cell-based
- MEASUREMENT_CONDITIONS: Homo sapiens, C13, C1-3 cells, active if Secretion Ratio>2.5
Collected fold induction at 30 µM values appear next to each entry.
OBSERVED_PROPERTY: fold induction at 30 µM

- CCCCn1c(=O)c2c(ncn2S(=O)(=O)c2ccc(N(OC(C)=O)C(C)=O)cc2)n(CCCC)c1=O: 4.3
- CCCCn1c(=O)c2c(ncn2S(=O)(=O)CCCCl)n(CCCC)c1=O: 3.6
- CCCCn1c(=O)c2c(ncn2S(=O)(=O)c2cccc3ccccc23)n(CCCC)c1=O: 4.5
- CCCCn1c(=O)n(CC=C(C)C)c(=O)c2c1ncn2S(=O)(=O)c1ccc(OC)c(OC)c1: 3.66
- CCCCn1c(=O)c2c(ncn2S(=O)(=O)c2ccc(NO)cc2)n(CCCC)c1=O: 5.4
- CCCCn1c(=O)c2c(ncn2S(=O)(=O)CCCC)n(CCCC)c1=O: 4.65
- CCCCn1c(=O)c2c(ncn2S(=O)(=O)c2ccc(OC)c(OC)c2)n(CCCC)c1=O: 4.7
- CCCCn1c(=O)n(CC=C(C)C)c(=O)c2c1ncn2S(=O)(=O)c1ccc(C)cc1: 3.74
- CCCCn1c(=O)c2c(nc(C)n2S(=O)(=O)CCCCl)n(CCCC)c1=O: 4.09
- CCCCn1c(=O)c2c(ncn2S(=O)(=O)c2c(C)noc2C)n(CCCC)c1=O: 3.3
- CCCCn1c(=O)c2c(ncn2S(C)(=O)=O)n(CCCC)c1=O: 4.65
- CCCCn1c(=O)c2c(nc(C)n2S(=O)(=O)c2ccc(C)cc2)n(CCCC)c1=O: 3.23
- CCCCn1c(=O)c2c(ncn2S(=O)(=O)Cc2ccccc2)n(CCCC)c1=O: 5.1
- CCCCn1c(=O)c2c(ncn2S(=O)(=O)c2ccc(C(C)(C)C)cc2)n(CCCC)c1=O: 5.1
